PROTOCOL DETAILS: AUC (0 to infinity) in Sprague-Dawley rat at 5 mg/kg, iv measured for 72 hrs by LC-MS/MS analysis
Assay type: ADME, organism-based
Set-up: time 72 hrs, dose 5 mg/kg, route iv
CONDITIONS USED: in vivo
EXPERIMENTAL ENDPOINT: AUC(0-inf)
Don't forget the unit after the value.

Entry under review: O=C(Cc1ccccc1)Nc1nnc(NC2CCN(c3nnc(NC(=O)c4nccn4Cc4ccc(C(F)(F)F)cc4)s3)CC2)s1 . Reported AUC(0-inf)?
7310 ng·h/mL

---

SYSTEM: Glutaminase kidney isoform, mitochondrial (Mus musculus, UniProt D3Z7P3)
Sequence (D3Z7P3 whole entry, canonical isoform): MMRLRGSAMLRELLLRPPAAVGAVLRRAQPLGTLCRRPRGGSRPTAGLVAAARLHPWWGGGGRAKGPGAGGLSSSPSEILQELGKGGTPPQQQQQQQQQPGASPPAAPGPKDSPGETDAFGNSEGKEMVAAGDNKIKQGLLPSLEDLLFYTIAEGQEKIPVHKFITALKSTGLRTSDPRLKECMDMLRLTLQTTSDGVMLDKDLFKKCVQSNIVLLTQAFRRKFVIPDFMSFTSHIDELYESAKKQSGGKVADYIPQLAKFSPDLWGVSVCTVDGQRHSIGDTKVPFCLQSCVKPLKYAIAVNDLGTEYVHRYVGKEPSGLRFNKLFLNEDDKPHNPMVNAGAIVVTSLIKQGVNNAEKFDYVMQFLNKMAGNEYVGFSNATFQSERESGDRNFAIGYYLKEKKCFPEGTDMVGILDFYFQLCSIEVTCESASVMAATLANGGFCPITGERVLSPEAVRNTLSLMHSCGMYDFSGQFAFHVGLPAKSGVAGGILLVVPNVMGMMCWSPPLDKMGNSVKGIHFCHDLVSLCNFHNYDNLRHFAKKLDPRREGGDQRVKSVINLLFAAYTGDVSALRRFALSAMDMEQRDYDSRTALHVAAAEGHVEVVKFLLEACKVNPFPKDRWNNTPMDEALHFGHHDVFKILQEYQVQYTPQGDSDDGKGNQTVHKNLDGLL
PROTOCOL DETAILS: Inhibition of GLS1 in mouse kidney assessed as inhibition of glutamate production using glutamine as substrate incubated for 1 hr by coupled assay
Assay type: tissue-based
EXPERIMENTAL ENDPOINT: pIC50
# log scale: pIC50 equals minus log10 of the concentration in mol/L

Request: pIC50, test system Glutaminase kidney isoform, mitochondrial (Mus musculus, UniProt D3Z7P3), entry O=C(Cc1cccc(OC(F)(F)F)c1)Nc1ccc(CCCCc2nnc(NC(=O)Cc3ccccn3)s2)nn1
7.70
